Each recorded value in this set is attributed to patent US10183944B2.

Target: JAK2 (Homo sapiens (Human), UniProt O60674)
Sequence (O60674 808-1132): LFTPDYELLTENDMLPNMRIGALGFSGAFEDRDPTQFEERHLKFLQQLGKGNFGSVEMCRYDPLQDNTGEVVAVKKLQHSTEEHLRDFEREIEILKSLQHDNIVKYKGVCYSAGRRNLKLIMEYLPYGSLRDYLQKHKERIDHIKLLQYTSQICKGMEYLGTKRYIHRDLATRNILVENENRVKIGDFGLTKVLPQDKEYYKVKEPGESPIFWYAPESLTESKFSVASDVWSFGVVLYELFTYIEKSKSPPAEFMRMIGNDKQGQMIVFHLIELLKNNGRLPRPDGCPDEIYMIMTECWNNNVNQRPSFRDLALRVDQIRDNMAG
Assay: Inhibition of enzymatic JAK2 kinase activity (TR-FRET)
Assay type: biochemical
Settings: read-out: IC50 JAK
Counter-ions that a name gives are not always drawn.
ASSAY_METRIC: IC50

A selection of reference data follows.
O=c1[nH]ncc2nc(N3CCCCCC3)nc(Nc3ccc(OCCN4CCNCC4)nc3)c12	< 10 nM
O=C(O)CCCOc1ccc(Nc2nc(N3CCCCCC3)nc3cn[nH]c(=O)c23)cc1	< 50 nM
CC(C)(C(=O)O)N1CCN(c2ccc(Nc3nc(N4CCC(CC#N)CC4)nc4cn[nH]c(=O)c34)cc2)CC1	< 50 nM
COCCN1CCN(c2ccc(Nc3nc(N4CCC(CC#N)CC4)nc4cn[nH]c(=O)c34)cc2)CC1	< 50 nM
CC(C)N(CCOc1ccc(Nc2nc(N3CCCCCC3)nc3cn[nH]c(=O)c23)cc1)C(C)C	< 50 nM
CC(C)(C(=O)O)C1CCN(c2ccc(Nc3nc(-c4ccccc4)nc4cn[nH]c(=O)c34)cc2)CC1	> 100 nM
COc1ccccc1-c1nc(Nc2ccc(N3CCC4(CC3)CC4C(=O)O)cc2)c2c(=O)[nH]ncc2n1 (stereo not shown)	< 100 nM
O=C(O)CCC1CCN(c2ccc(Nc3nc(-c4ccccc4)nc4cn[nH]c(=O)c34)cc2)CC1	< 10 nM

IN: Param item = CCN1CCN(c2ccc(Nc3nc(N4CCC(CC#N)CC4)nc4cn[nH]c(=O)c34)cc2)CC1 ; retrieve measured IC50.
OUT: < 50 nM

IN: Reported IC50, molecule N#CCC1CCN(c2nc(Nc3ccc(N4CCCC(CCO)C4)cc3)c3c(=O)[nH]ncc3n2)CC1 (stereo not shown) : ____
OUT: < 50 nM

IN: Return reported IC50; argument: O=c1[nH]ncc2nc(-c3ccccc3)nc(Nc3ccc(CN4CCOCC4)cc3)c12
OUT: < 50 nM

IN: # input molecule: N#CCC1CCN(c2nc(Nc3ccc(N4CCCN(CCO)CC4)cc3)c3c(=O)[nH]ncc3n2)CC1 ; wanted: its IC50
OUT: < 10 nM

IN: Requested read-out: IC50. Entry: N#CCC1CCN(c2nc(Nc3ccc4[nH]c(=O)[nH]c4c3)c3c(=O)[nH]ncc3n2)CC1
OUT: < 50 nM

IN: So what's the measured IC50 for this one? CC(C)N(c1nc(Nc2ccc(CN3CCNCC3)cc2)c2c(=O)[nH]ncc2n1)C(C)C [Example 54, hydrochloride]
OUT: < 10 nM

IN: // query IC50 value for entry O=C(O)CN1CCC(c2ccc(Nc3nc(-c4ccccc4)nc4cn[nH]c(=O)c34)cc2)CC1
OUT: < 50 nM

IN: For the molecule N#CCC1CCN(c2nc(Nc3ccc(N4CCN(CC(=O)O)CC4)cc3)c3c(=O)[nH]ncc3n2)CC1 , what IC50 is on record?
OUT: < 10 nM

====

Biological target: JAK2 (Homo sapiens (Human), UniProt O60674)
Assay: Inhibition of enzymatic JAK2 kinase activity (TR-FRET)
Format: biochemical
Details: read-out: IC50 JAK
pIC50: −log10 of the molar value.
ASSAY_METRIC: pIC50

Worked examples follow.
O=C(O)C1CC12CCN(c1ccc(Nc3nc(C4CCCCC4)nc4cn[nH]c(=O)c34)cc1)CC2 (centres unmarked)	> 8.00
O=c1[nH]ncc2nc(N3CCCCCC3)nc(Nc3ccc(N4CCC(CO)CC4)cc3)c12	> 8.00
N#CCC1CCN(c2ccc(Nc3nc(N4CCCCCC4)nc4cn[nH]c(=O)c34)cc2)CC1 [Example 80]	> 8.00
CCN(CC)CCOc1ccc(Nc2nc(N3CCC(CC#N)CC3)nc3cn[nH]c(=O)c23)cc1	> 7.30
CN(C)CCN1CCN(c2ccc(Nc3nc(N4CCCCCC4)nc4cn[nH]c(=O)c34)cc2)CC1	> 8.00
O=c1[nH]ncc2nc(-c3ccccc3)nc(Nc3ccc(N(CCO)CCO)cc3)c12	> 7.00

IN: Field: pIC50 (JAK2 (Homo sapiens (Human), UniProt O60674)). Entry: O=C(O)CC1CCCN(c2ccc(Nc3nc(N4CCCCCC4)nc4cn[nH]c(=O)c34)cc2)C1 (centres unmarked)
OUT: > 8.00

IN: For the record CCN1CCN(C(=O)COc2ccc(Nc3nc(N4CCCCCC4)nc4cn[nH]c(=O)c34)cc2)CC1 , what value of pIC50 is listed for JAK2 (Homo sapiens (Human), UniProt O60674)?
OUT: > 7.30

====

Target: Syk (356-635 amino acids) catalytic domain (Homo sapiens (Human), UniProt P43405)
Assay: Inhibition of enzymatic Syk kinase activity (radiometric)
Format: biochemical
Settings: read-out: IC50 Syk
pIC50: −log10 of the molar value.
ASSAY_METRIC: pIC50

Below, 5 compounds whose answers are already recorded.
N#CCC1CCN(c2nc(Nc3cccc(CO)c3)c3c(=O)[nH]ncc3n2)CC1	< 7.00
N#CC1CCN(c2nc(Nc3ccc(CN4CCC(C(=O)O)CC4)cc3)c3c(=O)[nH]ncc3n2)CC1	< 7.00
O=c1[nH]ncc2nc(N3CCCCCC3)nc(Nc3ccc(CO)cc3)c12	> 7.30
O=C(O)C1CC12CCN(c1ccc(Nc3nc(C4CCCCC4)nc4cn[nH]c(=O)c34)cc1)CC2 (stereo not shown)	> 7.30
COc1ccc(Nc2nc(N3CCC(CC#N)CC3)nc3cn[nH]c(=O)c23)cc1OC	< 7.00

IN: Returns the measured pIC50 for the input compound. Input: N#CCC1CCN(c2nc(Nc3ccc(CCN4CCN(CCO)CC4)cc3)c3c(=O)[nH]ncc3n2)CC1
OUT: > 7.30

IN: Any idea what its pIC50 is? The compound is O=c1[nH]ncc2nc(-c3ccccc3)nc(Nc3ccc(N4CCC5(CC4)COC5)cc3)c12
OUT: < 7.00

====

Biological target: JAK2 (Homo sapiens (Human), UniProt O60674)
Assay: Inhibition of enzymatic JAK2 kinase activity (TR-FRET)
Type: biochemical
Details: read-out: IC50 JAK
Structures can show the parent of a compound that is named as a salt.
ASSAY_METRIC: IC50

IN: Request the reported IC50 associated with O=c1[nH]ncc2nc(N3CCCCCC3)nc(Nc3ccc(OCCN4CCNCC4)cc3)c12 [Example 107]
OUT: < 50 nM

IN: Which IC50 value belongs to N#CCC1CCN(c2nc(Nc3ccc(OCCN)cc3)c3c(=O)[nH]ncc3n2)CC1 [Example 200] ?
OUT: < 50 nM

IN: Sample N#CCN1CCN(c2nc(Nc3ccc(N4CCC(CC(=O)O)CC4)cc3)c3c(=O)[nH]ncc3n2)CC1 [Example 70] — what was its IC50?
OUT: > 100 nM

IN: // returns reported IC50 for input O=c1[nH]ncc2nc(N3CC[S+]([O-])CC3)nc(Nc3ccc(CN4CCNCC4)cc3)c12 [Example 44, hydrochloride]
OUT: > 100 nM

IN: Entry O=c1[nH]ncc2nc(N3CCCCC3)nc(Nc3ccc(OCCN4CCC(O)CC4)cc3)c12 [Example 183] has what IC50?
OUT: < 50 nM

IN: Look at this molecule and give its reported IC50. O=c1[nH]ncc2nc(N3CCCCCC3)nc(Nc3ccc(-c4nnn(CCO)n4)cc3)c12 [Example 222]
OUT: < 50 nM

IN: # input molecule: CC(C)(O)C(=O)N1CCN(c2ccc(Nc3nc(N4CCC(CC#N)CC4)nc4cn[nH]c(=O)c34)cc2)CC1 [Example 223] ; wanted: its IC50
OUT: < 10 nM

IN: For the molecule shown here, N#CCC1CCN(c2nc(Nc3ccc(OC(F)F)cc3)c3c(=O)[nH]ncc3n2)CC1 [Example 338] , give the reported IC50.
OUT: > 100 nM

IN: # get_value(readout='IC50', item= CCN1CCN(c2ccc(Nc3nc(N4CCCCCC4)nc4cn[nH]c(=O)c34)cc2)CC1=O [Example 175] )
OUT: < 10 nM

IN: Item O=C(O)C1CC12CCN(c1ccc(Nc3nc(-c4ccsc4)nc4cn[nH]c(=O)c34)cc1)CC2 (stereo not shown) [Example 39] has what recorded IC50?
OUT: < 50 nM

IN: Quick check: IC50 of O=c1[nH]ncc2nc(N3CCCCCC3)nc(Nc3ccc(N4CCCC(CO)C4)cc3)c12 (stereo not shown) [Example 285] ?
OUT: < 50 nM

IN: Given N#CCC1CCN(c2nc(Nc3ccc(OCCO)cc3)c3c(=O)[nH]ncc3n2)CC1 [Example 293] , state its recorded IC50.
OUT: < 50 nM

IN: Find the recorded IC50 belonging to O=c1[nH]ncc2nc(N3CCCCCC3)nc(Nc3ccc(OCCC4CCNCC4)cc3)c12 [Example 168] and report it.
OUT: < 50 nM

IN: Request the reported IC50 associated with O=c1[nH]ncc2nc(N3CCCCCC3)nc(Nc3ccc(CCO)cc3)c12 [Example 322]
OUT: < 10 nM

IN: So what's the measured IC50 for this one? O=c1[nH]ncc2nc(N3CCCCCC3)nc(Nc3ccc(N4CCCN(CCO)CC4)cc3)c12 [Example 263]
OUT: < 10 nM

IN: Which IC50 is reported for this molecule? COc1cccc(-c2nc(Nc3ccc(N4CCC5(CC4)CC5C(=O)O)cc3)c3c(=O)[nH]ncc3n2)c1 (stereo not shown) [Example 47]
OUT: < 100 nM

IN: Which IC50 reading was recorded for the molecule O=C(O)C1CCN(Cc2ccc(Nc3nc(-c4ccccc4)nc4cn[nH]c(=O)c34)cc2)CC1 [Example 35] ?
OUT: < 50 nM

IN: Using the record for N#CCC1CCN(c2nc(Nc3ccc(N4CCC(CCCO)CC4)cc3)c3c(=O)[nH]ncc3n2)CC1 [Example 205] , report its IC50.
OUT: < 50 nM

IN: Looking for the measured IC50 of N#CCC1CCN(c2nc(Nc3ccc(N(CCO)CCO)cc3)c3c(=O)[nH]ncc3n2)CC1 [Example 307] , can you help?
OUT: < 10 nM

IN: # input molecule: O=c1[nH]ncc2nc(N3CCCCCC3)nc(Nc3ccc(N4CCC(Cc5nn[nH]n5)CC4)cc3)c12 [Example 244] ; wanted: its IC50
OUT: < 10 nM

IN: Any idea what its IC50 is? The molecule is COC1CCN(c2ccc(Nc3nc(N4CCCCCC4)nc4cn[nH]c(=O)c34)cc2)CC1 [Example 288]
OUT: < 50 nM

IN: Item under review: O=C(O)C[C@H]1CC[C@@H](c2ccc(Nc3nc(N4CCCCCC4)nc4cn[nH]c(=O)c34)cc2)CC1 [Example 123] . Reported IC50?
OUT: < 10 nM

IN: Given the entry N#CCC1CCN(c2ccc(Nc3nc(-c4ccccc4)nc4cn[nH]c(=O)c34)cn2)CC1 [Example 101] , report its measured IC50.
OUT: > 100 nM

IN: Using the record for CC(C)(O)C1CCN(c2ccc(Nc3nc(N4CCC(CC#N)CC4)nc4cn[nH]c(=O)c34)cc2)CC1 [Example 146] , report its IC50.
OUT: < 50 nM

IN: Which IC50 reading was recorded for the molecule O=c1[nH]ncc2nc(-c3ccc(Cl)cc3)nc(Nc3ccc(CN4CCNCC4)cc3)c12 [Example 40, hydrochloride] ?
OUT: > 100 nM
